Hey, just so you know, these numbers are from patent US9938262B2.

Target: FSHR (Homo sapiens)
Construct: expressed in transfected cells; host or cells: CHO (Cho-FSHR-LUC-1-1-43)
Sequence (P23945 18-695): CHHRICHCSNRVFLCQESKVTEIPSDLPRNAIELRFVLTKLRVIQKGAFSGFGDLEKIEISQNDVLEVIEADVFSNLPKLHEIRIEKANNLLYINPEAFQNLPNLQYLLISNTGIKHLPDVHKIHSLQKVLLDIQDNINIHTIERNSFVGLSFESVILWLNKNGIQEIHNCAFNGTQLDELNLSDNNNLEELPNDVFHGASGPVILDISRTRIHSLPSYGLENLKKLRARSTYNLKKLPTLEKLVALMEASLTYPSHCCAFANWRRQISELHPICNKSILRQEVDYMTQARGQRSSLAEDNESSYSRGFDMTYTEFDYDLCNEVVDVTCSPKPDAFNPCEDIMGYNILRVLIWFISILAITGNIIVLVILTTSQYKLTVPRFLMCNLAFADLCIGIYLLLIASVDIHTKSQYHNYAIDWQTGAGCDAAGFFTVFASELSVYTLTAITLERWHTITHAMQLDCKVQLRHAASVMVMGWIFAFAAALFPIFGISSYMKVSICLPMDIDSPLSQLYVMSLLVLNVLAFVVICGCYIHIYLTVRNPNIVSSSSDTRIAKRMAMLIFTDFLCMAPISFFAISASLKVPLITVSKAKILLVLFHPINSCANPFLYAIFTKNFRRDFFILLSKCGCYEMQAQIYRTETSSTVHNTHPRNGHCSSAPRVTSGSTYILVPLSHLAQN
Sequence (P01215 25-116 partner): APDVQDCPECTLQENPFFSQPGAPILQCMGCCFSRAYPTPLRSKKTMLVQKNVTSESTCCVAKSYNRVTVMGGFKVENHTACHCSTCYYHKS
Sequence (P01225 19-129 partner): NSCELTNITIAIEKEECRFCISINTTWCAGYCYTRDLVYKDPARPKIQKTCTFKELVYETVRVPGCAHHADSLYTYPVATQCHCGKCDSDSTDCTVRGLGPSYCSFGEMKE
Assay: EC50 of cyclic AMP production in CHO FSHR cells + EC20 FSH (Assay A)
Assay type: cell-based
Conditions: CHO FSHR cells + EC20 FSH; Table 2; read-out: Assay A EC50 of cyclic AMP production
MEASUREMENT_LABEL: EC50

(Q) Give the value of EC50 reported for the following: Cc1ccc(C(=O)Nc2cc(C(=O)NC[C@@H](O)c3ccccc3)ccc2N2CCN(c3ccccc3C)CC2)o1
(A) 1000 to 10000 nM

(Q) Give the value of EC50 reported for the following: Cc1ccccc1N1CCN(c2ccc(C(=O)NC[C@H](O)CO)cc2NC(=O)c2coc(C3CC3)n2)CC1
(A) 100 to 1000 nM

(Q) Give the value of EC50 reported for the following: Cc1ccc(C(=O)Nc2cc(C(=O)NCCCN3CCOC3=O)ccc2N2CCN(c3ccccc3C)CC2)o1
(A) 100 to 1000 nM

(Q) Give the value of EC50 reported for the following: Cc1ccccc1C1=CCN(c2ccc(C(=O)NCCCN3CCCC3=O)cc2NC(=O)c2coc(C3CC3)n2)CC1
(A) 100 to 1000 nM
